Values from patent US20250320281A1

Target: HIV-1 Env of isolate MGRM-AE-003 (pseudovirus) (HIV-1)
Experiment: cell-based or functional assay
METRIC_NAME: IC50 (µg/mL), pseudovirus neutralization

>  <BINDER>
PGT-126 (5141_B17) (antibody, V domains shown) VH: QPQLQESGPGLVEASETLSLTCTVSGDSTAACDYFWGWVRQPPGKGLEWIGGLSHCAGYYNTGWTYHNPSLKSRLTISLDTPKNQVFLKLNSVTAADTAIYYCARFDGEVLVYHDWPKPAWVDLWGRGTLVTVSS VL: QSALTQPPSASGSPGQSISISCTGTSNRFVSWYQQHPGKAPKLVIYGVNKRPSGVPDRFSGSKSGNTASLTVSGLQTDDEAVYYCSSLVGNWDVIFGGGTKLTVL

>  <MEAS_VALUE>
> 50 µg/mL

$$$$
>  <BINDER>
PGT-123 (4858_P08) (antibody, V domains shown) VH: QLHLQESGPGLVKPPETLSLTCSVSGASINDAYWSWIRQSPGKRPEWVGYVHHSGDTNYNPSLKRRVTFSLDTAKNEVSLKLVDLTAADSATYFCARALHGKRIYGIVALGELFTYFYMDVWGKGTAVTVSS VL: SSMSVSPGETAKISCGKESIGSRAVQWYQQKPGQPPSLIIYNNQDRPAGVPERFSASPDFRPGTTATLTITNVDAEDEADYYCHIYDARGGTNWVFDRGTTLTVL

>  <MEAS_VALUE>
> 50 µg/mL

$$$$
>  <BINDER>
PGT-127 (5145_B14) (antibody, V domains shown) VH: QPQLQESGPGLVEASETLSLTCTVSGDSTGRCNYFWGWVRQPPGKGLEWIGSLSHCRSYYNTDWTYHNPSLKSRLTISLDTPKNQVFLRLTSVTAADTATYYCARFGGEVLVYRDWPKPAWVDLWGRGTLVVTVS VL: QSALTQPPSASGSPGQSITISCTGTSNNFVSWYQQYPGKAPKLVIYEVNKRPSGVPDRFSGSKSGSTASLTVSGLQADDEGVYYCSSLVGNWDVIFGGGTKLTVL

>  <MEAS_VALUE>
> 50 µg/mL

$$$$

In plain terms, PGT-125 (5123_A06) (antibody, V domains shown) VH: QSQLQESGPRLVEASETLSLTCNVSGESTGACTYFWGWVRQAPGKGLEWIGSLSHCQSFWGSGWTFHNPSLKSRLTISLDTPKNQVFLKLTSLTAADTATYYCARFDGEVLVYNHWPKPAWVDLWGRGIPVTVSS VL: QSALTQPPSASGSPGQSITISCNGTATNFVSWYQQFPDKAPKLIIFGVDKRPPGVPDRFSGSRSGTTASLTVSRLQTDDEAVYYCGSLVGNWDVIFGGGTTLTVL has a documented IC50 (µg/mL), pseudovirus neutralization of 0.092 µg/mL
